Values were extracted from patent US10736877B2.

Outcome measure: melting point

>>> value_measured("CSc1ccc2c(c1)c(CCN)c(C)n2Cc1ccc(Cl)cc1.Cl [Compound K160]")
"198 to 209 °C"
>>> value_measured("Cc1c(CCN)c2ccccc2n1Cc1ccccc1Cl.Cl")
"161 to 169 °C"
>>> value_measured("Cc1c(CCN)c2ccccc2n1Cc1ccccc1.Cl [Compound K123]")
"158 to 161 °C"
>>> value_measured("CSc1ccc2c(c1)c(CCN)c(C)n2Cc1ccccc1.Cl [Compound K125]")
"178 to 189 °C"

###

Tested on: SHIP1
Experiment: Malachite green phosphatase release assay, SHIP1
Conditions: Malachite green assay at 1mM
Outcome measure: SHIP1 Inhibition (%)

>>> value_measured("Cc1c(CCN)c2cc(Br)ccc2n1Cc1ccccc1Cl.Cl [Compound K148]")
77
>>> value_measured("Cc1c(CCN)c2ccccc2n1Cc1ccccc1Cl.Cl [Compound K124]")
62
>>> value_measured("CSc1ccc2c(c1)c(CCN)c(C)n2Cc1ccc(Cl)cc1.Cl [Compound K160]")
78
>>> value_measured("Cc1c(CCN)c2ccccc2n1Cc1ccccc1.Cl [Compound K123]")
15
>>> value_measured("CSc1ccc2c(c1)c(CCN)c(C)n2Cc1ccc(Cl)cc1Cl.Cl [Compound K149]")
81
>>> value_measured("CSc1ccc2c(c1)c(CCN)c(C)n2Cc1ccccc1.Cl [Compound K125]")
64
